# target_system: Integrin alpha-V/beta-6 (Homo sapiens, UniProt P06756+P18564)
# Sequence (P18564 22-788 limits assumed, one chain of several): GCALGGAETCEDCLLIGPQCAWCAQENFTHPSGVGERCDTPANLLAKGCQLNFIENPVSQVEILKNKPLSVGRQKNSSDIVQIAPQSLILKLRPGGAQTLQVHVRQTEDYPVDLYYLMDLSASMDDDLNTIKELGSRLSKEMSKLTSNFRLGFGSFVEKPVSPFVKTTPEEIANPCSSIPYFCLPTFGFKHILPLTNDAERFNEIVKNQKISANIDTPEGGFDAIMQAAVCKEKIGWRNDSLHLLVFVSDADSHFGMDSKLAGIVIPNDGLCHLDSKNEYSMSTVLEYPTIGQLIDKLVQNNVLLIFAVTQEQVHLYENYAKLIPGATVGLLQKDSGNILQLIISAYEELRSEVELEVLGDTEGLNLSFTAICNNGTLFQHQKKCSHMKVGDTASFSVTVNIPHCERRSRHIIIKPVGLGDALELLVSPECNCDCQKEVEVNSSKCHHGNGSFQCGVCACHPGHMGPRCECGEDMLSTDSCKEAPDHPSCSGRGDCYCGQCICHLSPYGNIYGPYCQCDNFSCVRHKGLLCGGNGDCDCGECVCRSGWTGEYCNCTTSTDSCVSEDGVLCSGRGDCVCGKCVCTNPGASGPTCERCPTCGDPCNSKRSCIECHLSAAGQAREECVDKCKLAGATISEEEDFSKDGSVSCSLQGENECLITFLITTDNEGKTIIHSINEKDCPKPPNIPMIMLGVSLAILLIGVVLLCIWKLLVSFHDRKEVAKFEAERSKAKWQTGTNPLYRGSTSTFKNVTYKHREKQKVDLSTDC
# protocol_notes: Inhibition of integrin alphavbeta6 (unknown origin) by radioligand binding assay
pKi: −log10 of the molar value.
Recorded pKi for the following compounds
value_type: pKi

Cc1cc(C)n(-c2cccc([C@H](CC(=O)[O-])C[N@+]3(C)CC[C@@H](CCc4ccc5c(n4)NCCC5)C3)c2)n1: 9.76
Cc1cc(C)n(-c2cccc([C@H](CC(=O)[O-])C[N@@+]3(C)CC[C@@H](CCc4ccc5c(n4)NCCC5)C3)c2)n1: 9.97

----------
# protocol_notes: Protein binding in human lung homogenates assessed as fraction unbound at 1 ug/ml incubated for 4 hrs by LC-MS/MS-based rapid equilibrium dialysis method
# Format: ADME, tissue-based
# study_conditions: at 1 µg/mL
value_type: fraction unbound at 4 h, 1 ug/ml

Cc1cc(C)n(-c2cccc([C@H](CC(=O)[O-])C[N@@+]3(C)CC[C@@H](CCc4ccc5c(n4)NCCC5)C3)c2)n1: 0.097

----------
# target_system: Voltage-gated inwardly rectifying potassium channel KCNH2 (Homo sapiens)
# Sequence (Q12809 whole entry): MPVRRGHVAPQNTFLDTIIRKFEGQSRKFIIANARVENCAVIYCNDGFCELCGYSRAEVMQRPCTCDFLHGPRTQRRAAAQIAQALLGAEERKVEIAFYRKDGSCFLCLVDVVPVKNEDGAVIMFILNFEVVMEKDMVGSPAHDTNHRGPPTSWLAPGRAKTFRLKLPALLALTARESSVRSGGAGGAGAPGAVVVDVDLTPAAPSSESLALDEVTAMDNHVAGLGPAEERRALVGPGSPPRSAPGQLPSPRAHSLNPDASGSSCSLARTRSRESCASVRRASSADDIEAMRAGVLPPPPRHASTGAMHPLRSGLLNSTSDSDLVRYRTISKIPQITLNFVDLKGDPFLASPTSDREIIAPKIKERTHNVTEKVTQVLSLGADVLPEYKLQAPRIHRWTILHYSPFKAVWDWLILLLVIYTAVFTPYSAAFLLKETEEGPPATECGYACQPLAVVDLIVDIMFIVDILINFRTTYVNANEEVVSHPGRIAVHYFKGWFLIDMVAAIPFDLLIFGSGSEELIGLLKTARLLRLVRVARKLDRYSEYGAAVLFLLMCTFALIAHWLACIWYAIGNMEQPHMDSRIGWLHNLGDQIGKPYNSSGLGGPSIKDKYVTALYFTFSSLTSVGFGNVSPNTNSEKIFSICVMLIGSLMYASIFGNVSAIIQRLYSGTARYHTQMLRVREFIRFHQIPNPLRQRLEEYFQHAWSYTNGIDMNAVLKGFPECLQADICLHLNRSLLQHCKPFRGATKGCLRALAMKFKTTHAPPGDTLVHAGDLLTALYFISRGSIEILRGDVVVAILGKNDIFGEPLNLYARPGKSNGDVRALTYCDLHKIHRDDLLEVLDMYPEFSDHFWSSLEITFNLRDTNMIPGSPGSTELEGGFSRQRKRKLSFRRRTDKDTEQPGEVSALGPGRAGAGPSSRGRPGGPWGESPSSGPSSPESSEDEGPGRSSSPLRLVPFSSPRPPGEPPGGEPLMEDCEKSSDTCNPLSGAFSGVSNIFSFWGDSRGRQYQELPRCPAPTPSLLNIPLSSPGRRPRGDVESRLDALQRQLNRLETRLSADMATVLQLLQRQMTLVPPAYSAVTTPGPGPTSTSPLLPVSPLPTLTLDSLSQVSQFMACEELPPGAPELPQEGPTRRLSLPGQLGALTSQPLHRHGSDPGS
# protocol_notes: Inhibition of human ERG expressed in CHO-K1 cells at -80 mV holding potential by IonWorks barracuda automated electrophysiology method
pIC50: −log10 of the molar value.
value_type: pIC50

Cc1cc(C)n(-c2cccc([C@H](CC(=O)[O-])C[N@@+]3(C)CC[C@@H](CCc4ccc5c(n4)NCCC5)C3)c2)n1: < 4.30

----------
# target_system: Integrin alpha-V/beta-1 (Homo sapiens, UniProt P05556+P06756)
# Sequence (P05556 21-798 limits assumed): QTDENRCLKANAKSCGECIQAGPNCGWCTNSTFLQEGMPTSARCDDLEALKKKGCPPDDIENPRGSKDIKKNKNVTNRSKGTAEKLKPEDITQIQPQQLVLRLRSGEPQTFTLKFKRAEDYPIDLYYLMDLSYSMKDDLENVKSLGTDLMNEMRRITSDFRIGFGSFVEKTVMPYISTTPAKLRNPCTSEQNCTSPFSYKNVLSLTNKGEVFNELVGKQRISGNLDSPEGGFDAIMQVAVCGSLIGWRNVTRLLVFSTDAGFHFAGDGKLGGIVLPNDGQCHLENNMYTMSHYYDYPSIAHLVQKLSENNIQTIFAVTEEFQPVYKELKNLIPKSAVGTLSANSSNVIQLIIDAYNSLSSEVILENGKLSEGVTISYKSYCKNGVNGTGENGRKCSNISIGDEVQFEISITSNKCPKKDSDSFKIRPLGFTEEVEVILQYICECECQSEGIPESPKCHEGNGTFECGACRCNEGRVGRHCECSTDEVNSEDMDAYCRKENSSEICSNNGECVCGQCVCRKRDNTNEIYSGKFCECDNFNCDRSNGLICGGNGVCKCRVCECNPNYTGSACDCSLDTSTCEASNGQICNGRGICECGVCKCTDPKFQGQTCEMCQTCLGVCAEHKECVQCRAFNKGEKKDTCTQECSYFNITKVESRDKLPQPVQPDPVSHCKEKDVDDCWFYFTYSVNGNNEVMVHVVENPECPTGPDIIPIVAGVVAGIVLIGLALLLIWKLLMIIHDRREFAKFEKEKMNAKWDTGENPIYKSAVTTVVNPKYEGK
# Sequence (P06756 31-889 limits assumed): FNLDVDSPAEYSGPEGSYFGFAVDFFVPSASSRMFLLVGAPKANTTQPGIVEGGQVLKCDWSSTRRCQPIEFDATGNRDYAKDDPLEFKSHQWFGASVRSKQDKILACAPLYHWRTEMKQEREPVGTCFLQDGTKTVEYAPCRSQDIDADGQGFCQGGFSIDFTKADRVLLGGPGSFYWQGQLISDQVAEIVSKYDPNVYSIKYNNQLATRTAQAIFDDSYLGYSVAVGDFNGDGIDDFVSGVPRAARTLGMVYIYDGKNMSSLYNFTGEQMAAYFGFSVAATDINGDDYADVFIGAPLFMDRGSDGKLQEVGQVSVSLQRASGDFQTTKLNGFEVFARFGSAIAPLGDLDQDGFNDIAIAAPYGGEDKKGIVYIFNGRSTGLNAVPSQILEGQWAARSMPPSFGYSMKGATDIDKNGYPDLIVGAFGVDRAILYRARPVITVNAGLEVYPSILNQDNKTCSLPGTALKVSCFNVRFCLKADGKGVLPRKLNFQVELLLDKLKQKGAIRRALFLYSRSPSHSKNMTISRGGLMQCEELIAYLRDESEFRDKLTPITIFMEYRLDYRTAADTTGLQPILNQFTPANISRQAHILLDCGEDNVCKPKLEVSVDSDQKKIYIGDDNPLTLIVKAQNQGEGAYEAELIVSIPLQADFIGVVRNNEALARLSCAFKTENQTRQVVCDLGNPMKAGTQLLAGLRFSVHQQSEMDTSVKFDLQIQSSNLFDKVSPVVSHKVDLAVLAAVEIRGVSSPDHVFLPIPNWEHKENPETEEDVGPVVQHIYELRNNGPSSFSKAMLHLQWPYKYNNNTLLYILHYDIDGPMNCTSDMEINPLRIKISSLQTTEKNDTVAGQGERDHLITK
# Sequence (P06756 891-1048 limits assumed): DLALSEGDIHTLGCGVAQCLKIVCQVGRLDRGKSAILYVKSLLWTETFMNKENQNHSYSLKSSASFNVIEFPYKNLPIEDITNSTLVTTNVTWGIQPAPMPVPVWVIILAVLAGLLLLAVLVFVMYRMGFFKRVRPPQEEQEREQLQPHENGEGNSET
pIC50: −log10 of the molar value.
Kind request: treat 6 as inclusive, so pIC50 at 6 or higher is T, anything lower is F.

Cc1ccnn1-c1cccc([C@H](CC(=O)[O-])C[N+]2(C)CC[C@@H](CCc3ccc4c(n3)NCCC4)C2)c1 (mixture of isomers): F
C[N+]1(C[C@@H](CC(=O)[O-])c2cccc(O[C@@H]3CCOC3)c2)CC[C@@H](CCc2ccc3c(n2)NCCC3)C1 (mixture of isomers): F
Cc1cc(C)n(-c2cccc([C@H](CC(=O)[O-])C[N@@+]3(C)CC[C@@H](CCc4ccc5c(n4)NCCC5)C3)c2)n1: T
Cc1cc(C)n(-c2cccc([C@H](CC(=O)[O-])C[N@+]3(C)CC[C@@H](CCc4ccc5c(n4)NCCC5)C3)c2)n1: F
CC[N@+]1(C[C@@H](CC(=O)[O-])c2cccc(-n3nc(C)cc3C)c2)CC[C@@H](CCc2ccc3c(n2)NCCC3)C1: F

----------
# protocol_notes: in vitro
# study_conditions: not told
# Description: Permeability of the compound
value_type: Papp

Cc1cc(C)n(-c2cccc([C@H](CC(=O)[O-])C[N@@+]3(C)CC[C@@H](CCc4ccc5c(n4)NCCC5)C3)c2)n1: < 0.8 ×10⁻⁶ cm/s

----------
# protocol_notes: physchem
# study_conditions: buffer, pH 7.4
# Description: Lipophilicity, logD of the compound at pH 7.4 by chromatographic method
Listed here: items and their measured chromatographic logD.
value_type: chromatographic logD

CC[N@+]1(C[C@@H](CC(=O)[O-])c2cccc(-n3nc(C)cc3C)c2)CC[C@@H](CCc2ccc3c(n2)NCCC3)C1: 2.8
O=C(O)C[C@H](CN1CC[C@@H](CCc2ccc3c(n2)NCCC3)C1)c1cccc(N2CCOCC2)c1: 2.3
Cc1cc(C)n(-c2cccc([C@H](CC(=O)[O-])C[N@@+]3(C)CC[C@@H](CCc4ccc5c(n4)NCCC5)C3)c2)n1: 2.5
Cc1ccnn1-c1cccc([C@H](CC(=O)[O-])C[N+]2(C)CC[C@@H](CCc3ccc4c(n3)NCCC4)C2)c1 (mixture of isomers): 2.1
C[N+]1(C[C@@H](CC(=O)[O-])c2cccc(O[C@@H]3CCOC3)c2)CC[C@@H](CCc2ccc3c(n2)NCCC3)C1 (mixture of isomers): 1.9
Cc1cc(C)n(-c2cccc([C@H](CC(=O)[O-])C[N@+]3(C)CC[C@@H](CCc4ccc5c(n4)NCCC5)C3)c2)n1: 2.4
C[N+]1(C[C@@H](CC(=O)[O-])c2cccc(N3CCOCC3)c2)CC[C@@H](CCc2ccc3c(n2)NCCC3)C1 (mixture of isomers): 1.8

----------
The following molecules are listed with their measured pIC50 values.
# target_system: Integrin alpha-V/beta-3 (Homo sapiens, UniProt P05106+P06756)
pIC50: −log10 of the molar value.
value_type: pIC50

Cc1ccnn1-c1cccc([C@H](CC(=O)[O-])C[N+]2(C)CC[C@@H](CCc3ccc4c(n3)NCCC4)C2)c1 (mixture of isomers): 5.20
C[N+]1(C[C@@H](CC(=O)[O-])c2cccc(O[C@@H]3CCOC3)c2)CC[C@@H](CCc2ccc3c(n2)NCCC3)C1 (mixture of isomers): 5.40
Cc1cc(C)n(-c2cccc([C@H](CC(=O)[O-])C[N@@+]3(C)CC[C@@H](CCc4ccc5c(n4)NCCC5)C3)c2)n1: 5.20
C[N+]1(C[C@@H](CC(=O)[O-])c2cccc(N3CCOCC3)c2)CC[C@@H](CCc2ccc3c(n2)NCCC3)C1 (mixture of isomers): 5.30

----------
// values below are reported IC50
# target_system: Integrin alpha-V/beta-6 (Homo sapiens, UniProt P06756+P18564)
value_type: IC50 (nM)

CC[N@+]1(C[C@@H](CC(=O)[O-])c2cccc(-n3nc(C)cc3C)c2)CC[C@@H](CCc2ccc3c(n2)NCCC3)C1: 39.8
Cc1cc(C)n(-c2cccc([C@H](CC(=O)[O-])C[N@+]3(C)CC[C@@H](CCc4ccc5c(n4)NCCC5)C3)c2)n1: 3.16
C[N+]1(C[C@@H](CC(=O)[O-])c2cccc(O[C@@H]3CCOC3)c2)CC[C@@H](CCc2ccc3c(n2)NCCC3)C1 (mixture of isomers): 12.6
Cc1cc(C)n(-c2cccc([C@H](CC(=O)[O-])C[N@@+]3(C)CC[C@@H](CCc4ccc5c(n4)NCCC5)C3)c2)n1: 3.16
C[N+]1(C[C@@H](CC(=O)[O-])c2cccc(N3CCOCC3)c2)CC[C@@H](CCc2ccc3c(n2)NCCC3)C1 (mixture of isomers): 12.6

----------
# protocol_notes: Inhibition of human LAP binding to human integrin alphavbeta8 after 2 hrs
value_type: IC50 (nM)

CC(C)(C)c1cc(Br)cc([C@H](CC(=O)O)NC(=O)CNC(=O)c2cc(O)cc(NC3=NCC(O)CN3)c2)c1 (stereo partly specified): 0.2

Values were extracted from ChEMBL document CHEMBL4373707.
